- system_under_test: WT PfMDH (Plasmodium falciparum)
- Construct: The full-length WT PfMDH gene was cloned into pETM-13; made in house; host or cells: E. coli Rosetta 2 (DE3) pLysS
- Sequence (Q6VVP7 entry or part of it): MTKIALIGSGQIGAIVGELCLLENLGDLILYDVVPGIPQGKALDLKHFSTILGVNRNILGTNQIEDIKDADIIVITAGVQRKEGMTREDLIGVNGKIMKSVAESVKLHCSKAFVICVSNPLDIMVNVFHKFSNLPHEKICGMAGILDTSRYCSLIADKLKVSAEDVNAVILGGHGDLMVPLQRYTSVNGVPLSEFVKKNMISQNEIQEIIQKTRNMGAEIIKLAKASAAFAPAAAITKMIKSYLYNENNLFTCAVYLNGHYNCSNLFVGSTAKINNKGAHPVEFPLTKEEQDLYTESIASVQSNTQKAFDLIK
- assay_notes: Activity screening of 4DT / 4-phenylthiazol-2-amine derivatives (oxidation of malate, absorbance at 340 nm)
- Assay type: biochemical
- experimental_parameters: 500 µM compound, control 100%, replicate 2; read-out: % enzymatic activity repl2
Define the label as rule met when remaining activity at 500 µM is strictly less than 50% and as rule not met in all remaining cases.

| compound | system_under_test | qualitative_label |
| --- | --- | --- |
| CC(C)(C)OC(=O)CNC(=O)c1cc(-c2cccs2)on1 [4b] | WT PfMDH (Plasmodium falciparum) | rule met |
| Nc1nc(-c2ccc(F)c(F)c2)cs1 [1a] | WT PfMDH (Plasmodium falciparum) | rule not met |
| NCc1ccc(-c2csnn2)cc1 [2b] | WT PfMDH (Plasmodium falciparum) | rule met |
| Cc1ccc(-c2csc(N)n2)cc1C [compound 5a] | WT PfMDH (Plasmodium falciparum) | rule met |
| Nc1nc(-c2ccc(Cl)c(Cl)c2)cs1 [7a] | WT PfMDH (Plasmodium falciparum) | rule met |
| O=C(O)c1cc(-c2cccs2)on1 [compound 1b] | WT PfMDH (Plasmodium falciparum) | rule not met |
| Cc1c(CO)cnn1-c1ccccc1 [compound 6b] | WT PfMDH (Plasmodium falciparum) | rule not met |
